Tested on: MOLT-4 leukemia
Assay: NCI-60 one-dose screen, 48 h
Conditions: 10 µM unless noted
Method: Growth inhibition of the MOLT-4 human tumor cell line is measured as a screen for anti-cancer activity. Cells are grown in 96 well plates and exposed to the test compound for 48 hours. Compounds are tested at a single concentration, which is 10^-5 M for most compounds. The reported endpoint is percent growth (GI% or GIPRCNT), where numbers from 0 - 100% represent growth inhibition, and numbers from -100% - 0 represent cell death. For example, a value of 40 represents 60% growth inhibition. […]
This is part of a sample that, as a whole, favours compounds with a hit. Of some 83,000 tested, about 20% had one in any assay. Calls of active or inactive are those of the source. How the source made its calls: active means growth percent below 10; inactive means the rest.
In this exercise, the only acceptable responses are active, inactive

These recorded examples may help you get a feel for the data.
* CC(C)(C)OC(=O)N1C/C(=C\c2ccc(F)cc2)C(=O)/C(=C/c2ccc(F)cc2)C1 | active
* CS(=O)(=O)Nc1cc(-c2ccc3ncnc(N4CCc5cc(F)c(Cl)cc54)c3c2)cnc1Cl | active
* COc1cc(C2CC(c3ccc(S(=O)(=O)NCCNc4nc(N(C)C)nc(N5CCOCC5)n4)cc3)=Nc3c(N)nc(N)nc3N2)cc(OC)c1OC (centres undefined) | inactive

We next turn to a different compound, shown below.
Q) Record lookup: outcome of this test for `O=C(CSc1nnc(-c2ccc(-c3nc4ccccc4[nH]3)cc2)o1)Nc1ccc(Cl)cc1` ?
A) active
